- measured.target: mouse TAAR1 (Mus musculus (Mouse), UniProt Q923Y8)
- Sequence (Q923Y8 whole entry): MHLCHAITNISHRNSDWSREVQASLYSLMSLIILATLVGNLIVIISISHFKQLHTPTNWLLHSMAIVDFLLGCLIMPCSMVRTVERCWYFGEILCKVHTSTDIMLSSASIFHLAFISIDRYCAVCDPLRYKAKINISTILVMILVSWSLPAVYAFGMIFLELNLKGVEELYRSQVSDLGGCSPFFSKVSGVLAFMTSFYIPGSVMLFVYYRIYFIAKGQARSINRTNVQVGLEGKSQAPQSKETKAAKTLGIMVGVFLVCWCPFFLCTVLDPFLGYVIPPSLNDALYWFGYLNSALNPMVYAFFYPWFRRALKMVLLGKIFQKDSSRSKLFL
- test.protocol: Radioligand binding assay on mouse TAAR1
- condition.details: mouse TAAR1, membranes of stably transfected HEK-293 cells; first value of the pair; read-out: Ki (μM) mouse/rat: mouse

>  <molecule>
Clc1ccc(Nc2ccc([C@H]3CNCCO3)nc2)nc1

>  <Ki>
0.0118 µM

$$$$
>  <molecule>
FC(F)(F)c1ccnc(Nc2ccc([C@H]3CNCCO3)nc2)c1

>  <Ki>
0.11 µM

$$$$
>  <molecule>
CC(C)Cc1cc(C(=O)Nc2ccc([C@@H]3CNCCO3)nc2)[nH]n1

>  <Ki>
0.0113 µM

$$$$
>  <molecule>
Fc1cc(Nc2ccc(C(F)(F)F)cn2)cnc1C1CNCCO1 (racemic)

>  <Ki>
0.0128 µM

$$$$
>  <molecule>
O=C(Nc1cnc(C2CNCCO2)c(F)c1)c1ccnc(C(F)(F)F)c1 (racemic)

>  <Ki>
0.0557 µM

$$$$

---

- measured.target: mouse TAAR1 (Mus musculus (Mouse))
- test.protocol: Radioligand binding assay on mouse TAAR1
- condition.details: mouse TAAR1, membranes of stably transfected HEK-293 cells; first value of the pair; read-out: Ki (μM) mouse/rat: mouse

>  <compound>
CC(C)n1nc(OCC(F)(F)F)cc1C(=O)Nc1ccc([C@@H]2CNCCO2)nc1

>  <readout.units>
µM

>  <Ki>
0.0215

$$$$
>  <compound>
O=C(Nc1ccc(F)cc1)Nc1ccc(C2CNCCO2)nc1 (racemic)

>  <readout.units>
µM

>  <Ki>
0.0071

$$$$
>  <compound>
O=C(Nc1ccc(Cl)cc1)Nc1ccc(C2CNCCO2)nc1 (racemic)

>  <readout.units>
µM

>  <Ki>
0.0038

$$$$
>  <compound>
Clc1ccc(Nc2ccc([C@@H]3CNCCO3)nc2)cc1

>  <readout.units>
µM

>  <Ki>
0.0015

$$$$
>  <compound>
O=C(Nc1ccc([C@@H]2CNCCO2)nc1)c1[nH]nc(C2CC2)c1Br

>  <readout.units>
µM

>  <Ki>
0.006

$$$$

---

- measured.target: rat TAAR1 (Rattus norvegicus (Rat), UniProt Q923Y9)
- Sequence (Q923Y9 whole entry): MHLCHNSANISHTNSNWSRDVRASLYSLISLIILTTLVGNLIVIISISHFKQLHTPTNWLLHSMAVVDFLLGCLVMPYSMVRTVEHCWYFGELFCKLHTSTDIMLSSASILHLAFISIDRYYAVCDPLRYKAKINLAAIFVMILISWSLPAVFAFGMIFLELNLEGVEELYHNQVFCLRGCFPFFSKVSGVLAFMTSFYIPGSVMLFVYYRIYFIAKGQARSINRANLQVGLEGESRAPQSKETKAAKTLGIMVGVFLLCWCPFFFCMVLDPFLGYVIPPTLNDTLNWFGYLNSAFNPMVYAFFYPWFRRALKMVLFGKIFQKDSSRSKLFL
- test.protocol: Radioligand binding assay on rat TAAR1
- condition.details: rat TAAR1, membranes of stably transfected HEK-293 cells; second value of the pair; read-out: Ki (μM) mouse/rat: rat
Each record here notes measured Ki.
observed.property: Ki (µM)

>  <compound>
FC(F)(F)c1ccc(Nc2ccc([C@@H]3CNCCO3)nc2)cn1

>  <observed.property>
Ki

>  <quantitative.result>
0.247

$$$$
>  <compound>
CC(C)c1n[nH]c(C(=O)Nc2ccc([C@H]3CNCCO3)nc2)c1Cl

>  <observed.property>
Ki

>  <quantitative.result>
0.009

$$$$
>  <compound>
Cc1cc(Nc2ccc(C(F)(F)F)cn2)cnc1C1CNCCO1 (racemic)

>  <observed.property>
Ki

>  <quantitative.result>
0.455

$$$$
>  <compound>
CCCc1n[nH]c(C(=O)Nc2ccc([C@@H]3CNCCO3)nc2)c1Cl

>  <observed.property>
Ki

>  <quantitative.result>
0.0146

$$$$
>  <compound>
CCCc1c(Cl)c(C(=O)Nc2ccc([C@H]3CNCCO3)nc2)nn1C

>  <observed.property>
Ki

>  <quantitative.result>
1.37

$$$$
>  <compound>
O=C(Nc1ccc(C2CNCCO2)nc1)c1[nH]nc(OCC(F)(F)F)c1Cl (racemic)

>  <observed.property>
Ki

>  <quantitative.result>
0.0133

$$$$
>  <compound>
CCc1ncc(C(=O)Nc2ccc([C@H]3CNCCO3)nc2)cn1

>  <observed.property>
Ki

>  <quantitative.result>
2.4

$$$$
>  <compound>
Brc1ccc(Nc2ccc([C@H]3CNCCO3)nc2)nc1

>  <observed.property>
Ki

>  <quantitative.result>
0.165

$$$$
>  <compound>
FC(F)(F)c1nccc(Nc2ccc(C3CNCCO3)nc2)n1 (racemic)

>  <observed.property>
Ki

>  <quantitative.result>
0.466

$$$$
>  <compound>
CC(C)c1cc(C(=O)Nc2ccc([C@@H]3CNCCO3)nc2)[nH]n1

>  <observed.property>
Ki

>  <quantitative.result>
0.0727

$$$$
>  <compound>
CC(C)c1cc(C(=O)Nc2ccc([C@H]3CNCCO3)nc2)n(CC(F)(F)F)n1

>  <observed.property>
Ki

>  <quantitative.result>
0.0442

$$$$
>  <compound>
CCOc1ccc(Nc2ccc(C3CNCCO3)nc2)cc1 (racemic)

>  <observed.property>
Ki

>  <quantitative.result>
0.374

$$$$
>  <compound>
CCCCc1n[nH]c(C(=O)Nc2ccc([C@H]3CNCCO3)nc2)c1F

>  <observed.property>
Ki

>  <quantitative.result>
0.0554

$$$$
>  <compound>
CCc1n[nH]c(C(=O)Nc2ccc([C@H]3CNCCO3)nc2)c1Cl

>  <observed.property>
Ki

>  <quantitative.result>
0.0925

$$$$
>  <compound>
Cc1cc(NC(=O)c2ccnc(C(F)(F)F)c2)cnc1C1CNCCO1 (racemic)

>  <observed.property>
Ki

>  <quantitative.result>
1.41

$$$$
>  <compound>
CC(C)c1cc(C(=O)Nc2ccc([C@H]3CNCCO3)nc2)[nH]n1

>  <observed.property>
Ki

>  <quantitative.result>
0.685

$$$$
>  <compound>
CCOc1n[nH]c(C(=O)Nc2ccc([C@@H]3CNCCO3)nc2)c1Cl

>  <observed.property>
Ki

>  <quantitative.result>
0.137

$$$$
>  <compound>
O=C(Nc1ccc([C@@H]2CNCCO2)nc1)c1ccc(C(F)(F)F)cc1

>  <observed.property>
Ki

>  <quantitative.result>
0.052

$$$$
